target.under.test: T1, recombinant biotinylated CD71 extracellular domain (Sino Biologics) with an N-terminal 6His tag (human, UniProt P02786 89-760, biotinylated (site not stated))
T1 construct: extracellular domain; also called hCD71; huCD71 ECD
test.details: primary solution ELISA screen
measured.metric: RLU
Respond with the figure and its unit, in that order.

Provide only the value of recorded RLU for SEQ ID NO 13 (designed binder, not shown: small tags and cut ends, FN3 domain, hit of the apical domain panning) MLPAPKNLVVSRVTEDSARLSWTAPDAAFDSFLIAYPEDGFRGEAIVLTVPGSERSYDLTGLKPGTEYPVPILGVKGGGGSGPLSAIFTT
1.73e+06 RLU

Provide only the value of recorded RLU for SEQ ID NO 46 (designed binder, not shown: small tags and cut ends, FN3 domain, hit of the apical domain panning) MLPAPKNLVVSRVTEDSARLSWTAPDAAFDSFIIPYAEVRPDGEAIVLTVPGSERSYDLTGLKPGTEYSVLIHGVKGGKLSLPLSAIFTT
1.04e+06 RLU

Provide only the value of recorded RLU for SEQ ID NO 56 (designed binder, not shown: small tags and cut ends, FN3 domain, hit of the apical domain panning) MLPAPKNLVVSRVTEDSARLSWTAPDAAFDSFSIGYVELVLLGEAIVLTVPGSERSYDLTGLKPGTEYDVLIPGVKGGSLSRPLSAIFTT
1.92e+06 RLU

Provide only the value of recorded RLU for SEQ ID NO 48 (designed binder, not shown: small tags and cut ends, FN3 domain, hit of the apical domain panning) MLPAPKNLVVSRVTEDSARLSWTAPDAAFDSFLIYYEEGYLEYYYSGEAIVLTVPGSERSYDLTGLKPGTEYYVGIVGVKGGGLSGPLSAISTT
3.04e+06 RLU

Provide only the value of recorded RLU for SEQ ID NO 73 (designed binder, not shown: small tags and cut ends, FN3 domain, hit of the apical domain panning) MLPAPKNLVVSEVTEDSARLSWQGVARAFDSFLITYREQIFAGEVIVLTVPGSERSYDLTGLKPGTEYPVWIQGVKGGSPSAPLSAESTT
1.47e+06 RLU
